Sourced from ChEMBL document CHEMBL1143423

Assay: AUC (0 to 24 hrs) in human serum at 400 mg, po administered as single dose
Assay type: ADME, organism-based
Set-up: time < 24 hr, dose 400 mg, route oral
observationType: AUC(0-t) at 24 h (ng·h/mL)
State just the number; it will be interpreted in ng·h/mL.

# input Name the recorded AUC(0-t) at 24 h for "COc1c(N2C[C@@H]3CCCN[C@@H]3C2)c(F)cc2c(=O)c(C(=O)O)cn(C3CC3)c12" .
# output 35000

###

Assay: Cmax in human serum at 400 mg, po administered as single dose
Format: ADME, organism-based
Settings: read-out: tCmax
observationType: Tmax (h)
Form entry: value (h) — number only.

# input Entry COc1c(N2C[C@@H]3CCCN[C@@H]3C2)c(F)cc2c(=O)c(C(=O)O)cn(C3CC3)c12 [MOXIFLOXACIN] : reported Tmax = ?
# output 1
